molecular target: Proto-oncogene tyrosine-protein kinase Src (Homo sapiens, UniProt P12931, C188A); experiment: Binding affinity for Cys188Ala Src SH2 domain mutant using BIAcore binding assay
observation.type: IC50

Specify reported IC50 for the compound shown: CC[C@H](C)[C@H](NC(=O)[C@H](CCC(=O)O)NC(=O)[C@H](CCC(=O)O)NC(=O)[C@@H](N)Cc1ccc(OP(=O)(O)O)cc1)C(=O)O
1.33 µM

Give reported IC50 value for CC[C@H](C)[C@H](NC(=O)[C@H](CCC(=O)O)NC(=O)[C@H](CCC(=O)O)NC(=O)CCc1ccc(C(=O)C(O)(O)C(=O)OC)cc1)C(N)=O
> 1000 µM

Determine its reported IC50: CC[C@H](C)[C@H](NC(=O)[C@H](CCC(=O)O)NC(=O)[C@H](CCC(=O)O)NC(=O)C(Cc1ccc(C(=O)C(=O)C(=O)OC)cc1)NC(C)=O)C(N)=O (stereo partly specified)
> 1000 µM

Given COC(=O)C(=O)C(=O)c1ccc(CC(NC(C)=O)C(=O)N[C@@H](CCC(=O)O)C(=O)N[C@H](C(=O)N[C@@H](CC(C)C)C(N)=O)[C@@H](C)O)cc1 (stereo partly specified) , respond with its IC50.
> 1000 µM

State its IC50: COC(=O)C(O)(O)C(=O)c1ccccc1
> 1000 µM

Give IC50 for the following compound: CC[C@H](C)[C@H](NC(=O)[C@H](CCC(=O)O)NC(=O)[C@H](CCC(=O)O)NC(=O)CCc1cccc(C(=O)C(O)(O)C(=O)OC)c1)C(N)=O
> 1000 µM
